MEASURED ON: Casein kinase I isoform gamma-2 (Homo sapiens) (UniProt P78368)
Sequence (P78368 whole entry, looked up, canonical isoform): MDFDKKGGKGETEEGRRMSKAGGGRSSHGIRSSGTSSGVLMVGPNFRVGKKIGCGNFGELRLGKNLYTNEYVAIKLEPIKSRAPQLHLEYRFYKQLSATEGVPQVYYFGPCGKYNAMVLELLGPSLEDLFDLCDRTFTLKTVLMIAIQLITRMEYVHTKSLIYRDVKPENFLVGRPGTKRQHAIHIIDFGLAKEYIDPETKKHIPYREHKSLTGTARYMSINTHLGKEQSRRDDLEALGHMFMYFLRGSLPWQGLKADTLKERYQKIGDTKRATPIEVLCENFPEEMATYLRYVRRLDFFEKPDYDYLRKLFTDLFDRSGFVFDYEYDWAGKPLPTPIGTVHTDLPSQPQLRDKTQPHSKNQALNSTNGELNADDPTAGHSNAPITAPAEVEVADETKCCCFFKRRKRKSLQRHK
RUN CONDITIONS: at 0.1 µM;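 also: values are mean inhibition figures reported as part of the GSK PKIS dataset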
Would you mind telling me the reported inhibition of each entry?
Numbers only, in %.

Please review the following examples before continuing.
- SMILES REPRESENTATION: "CC(C)(CO)CNC(=O)c1ccc2c(c1)/C(=N/Nc1ccc(S(N)(=O)=O)cc1)C(=O)N2"
  READOUT UNIT: "%"
  MEASURED VALUE: 0.93
- SMILES REPRESENTATION: "NS(=O)(=O)c1ccc(Nc2ncc(-c3ccccc3)o2)cc1"
  READOUT UNIT: "%"
  MEASURED VALUE: 2.8

Please look at the items below and tell me inhibition for each one, in order.
1. O=S(=O)(CCNCc1ccc(-c2ccc3ncnc(Nc4ccc(OCc5cccc(F)c5)c(Cl)c4)c3c2)o1)c1ccccc1
2. Clc1ccc(-c2nn3ncccc3c2-c2ccnc(Nc3ccccc3)n2)cc1
3. COc1cc2c(cc1Nc1nc(Nc3ccsc3C(N)=O)c3cc[nH]c3n1)N(C(=O)CN(C)C)CCC2(C)C

## Result
1. 4.49
2. 0.23
3. 3.76
